System: CYPSE (Flatsedge)
Assay: Preemergence weed control under flooded paddy conditions
Format: in vivo, Cyperus serotinus
Conditions: 0.0625 kg/ha, rated 3-4 weeks after treatment
readoutLabel: herbicidal effect rating, CYPSE
Just the number, please, no unit after it.

In the examples that follow, each entry is paired with its recorded herbicidal effect rating, CYPSE.
>  <compound>
CCOC(=O)CN1C(=O)C(SC)SC1=Nc1cc(-n2c(=O)cc(C(F)(F)F)n(C)c2=O)c(F)cc1Cl (stereo not shown)

>  <measuredNumber>
4.0

$$$$
>  <compound>
CCOC(=O)CN1C(=O)C(C(=O)OCC)SC1=Nc1cc(-n2c(=O)cc(C(F)(F)F)n(C)c2=O)c(F)cc1Cl (stereo not shown)

>  <measuredNumber>
0.0

$$$$
>  <compound>
Cn1c(C(F)(F)F)cc(=O)n(-c2cc(N=C3SCC(=O)N3CC(=O)OCC3CC3)c(Cl)cc2F)c1=O

>  <measuredNumber>
0.0

$$$$

(Q) Test system CYPSE (Flatsedge); read-out herbicidal effect rating, CYPSE; what value for Cn1c(C(F)(F)F)cc(=O)n(-c2cc(N=C3SCC(=O)N3C3CC3)c(Cl)cc2F)c1=O ?
(A) 0.0

###

Measured Herbicidal rating ORYSAT (rice tolerance), listed per entry for reference.
System: ORYSAT (Rice, Tebonnet)
Test: Rice tolerance to post-transplant applications, flooded paddy conditions (Table III)
Format: in vivo, Oryza sativa, (L.) Tebonnet
Details: 0.2500 kg/ha; post-transplant rice, flooded paddy; rated 3-4 weeks after treatment
API note: the answer field is a bare number with no unit suffix.

(Q) Could you share which Herbicidal rating ORYSAT (rice tolerance) value was measured for O=C(O)CC1SC(=Nc2cc(N3C(=O)C4=C(CCCC4)C3=O)c(F)cc2Cl)N(CC(=O)O)C1=O (centres unmarked) [Compound 48] ?
(A) 6.0

###

System: CYPSE (Flatsedge)
Test: Postemergence weed control under flooded paddy conditions
Type: in vivo, Cyperus serotinus
Conditions: rate 0.0625 kg/ha, postemergence weeds, 3-4 weeks after treatment
Listed molecules paired with reported Herbicidal rating CYPSE
Answer using only a numeral; do not append any unit.

Record excerpt, results attached:
>  <molecule>
CCOC(=O)CN1C(=O)C(CC(=O)NC)SC1=Nc1cc(-n2c(=O)cc(C(F)(F)F)n(C)c2=O)c(F)cc1Cl (stereo not drawn)

>  <Herbicidal rating CYPSE>
0.0

$$$$
>  <molecule>
CCC1SC(=Nc2cc(-n3c(=O)cc(C(F)(F)F)n(C)c3=O)c(F)cc2Cl)N(C)C1=O (stereo not drawn)

>  <Herbicidal rating CYPSE>
0.0

$$$$
>  <molecule>
CC1SC(=Nc2cc(N3C(=O)C4=C(CCCC4)C3=O)c(F)cc2Cl)N(C)C1=O (stereo not drawn)

>  <Herbicidal rating CYPSE>
0.0

$$$$

(Q) What does the data say about its Herbicidal rating CYPSE? Entry: COC(=O)CN1C(=O)CSC1=Nc1cc(-n2c(=O)cc(C(F)(F)F)n(C)c2=O)c(F)cc1Cl
(A) 9.0

(Q) Then this molecule: CCOC(=O)CN1C(=O)C(Cc2ccccc2OC(C)C(=O)OC)SC1=Nc1cc(-n2c(=O)cc(C(F)(F)F)n(C)c2=O)c(F)cc1Cl (stereo not drawn)
(A) 0.0

(Q) What do you get for Cn1c(C(F)(F)F)cc(=O)n(-c2cc(N=C3SCC(=O)N3CCC(=O)O)c(Cl)cc2F)c1=O ?
(A) 0.0

###

System: IPOHE (Morningglory, Ivyleaf)
Assay: Preemergence herbicidal evaluation
Format: in vivo, Ipomoea hederacea
Settings: preemergence, 0.2500 kg/ha, rated 4-5 weeks after treatment, 0-9 scale
Listing: IPOHE rating of selected compounds
Keep the answer to the number alone.

>  <compound>
COC(=O)C1(N2C(=O)CSC2=Nc2cc(-n3c(=O)cc(C(F)(F)F)n(C)c3=O)c(F)cc2Cl)CCCCC1

>  <measuredNumber>
9.0

$$$$

(Q) Param readout = IPOHE rating; param system = IPOHE (Morningglory, Ivyleaf); param query = C=CCN1C(=O)C(CC(=O)NOC)SC1=Nc1cc(-n2c(=O)cc(C(F)(F)F)n(C)c2=O)c(F)cc1Cl (stereo not drawn) ; response: value
(A) 7.0

(Q) Now the same for CCOC(=O)CN1C(=O)C(CC(=O)OCCF)SC1=Nc1cc(-n2c(=O)cc(C(F)(F)F)n(C)c2=O)c(F)cc1Cl (stereo not drawn)
(A) 9.0

(Q) # iterate: CCS(=O)(=O)NC(=O)CC1SC(=Nc2cc(-n3c(=O)cc(C(F)(F)F)n(C)c3=O)c(F)cc2Cl)N(C)C1=O (stereo not drawn)
(A) 3.0

(Q) Entry CCOC(=O)CN1C(=O)C(CC(=O)OC(C)C(=O)OCC)S/C1=N/c1cc(-n2c(=O)cc(C(F)(F)F)n(C)c2=O)c(F)cc1Cl (stereo not drawn) please
(A) 5.0

(Q) Also CN1C(=O)C(CC(=O)NS(C)(=O)=O)SC1=Nc1cc(-n2c(=O)cc(C(F)(F)F)n(C)c2=O)c(F)cc1Cl (stereo not drawn) ?
(A) 9.0

###

Reported SETVI herbicidal rating values for a set of compounds
Tested on: SETVI (Foxtail, Green)
Assay: Postemergence herbicidal evaluation
Type: in vivo, Setaria viridis
Settings: postemergence, rate 0.0313 kg/ha
// response body must contain only the number

(Q) Record CN1C(=O)C(F)SC1=Nc1cc(N2C(=O)C3=C(CCCC3)C2=O)c(F)cc1Cl (stereo not shown) : what is its SETVI herbicidal rating with SETVI (Foxtail, Green)?
(A) 0.0

(Q) Cool, now CCOC(=O)CN1C(=O)C(C)SC1=Nc1cc(-n2c(=O)cc(C(F)(F)F)n(C)c2=O)c(F)cc1Cl (stereo not shown)
(A) 4.0

(Q) Another compound to look at: CN1C(=O)C(CC(=O)NS(C)(=O)=O)SC1=Nc1cc(-n2c(=O)cc(C(F)(F)F)n(C)c2=O)c(F)cc1Cl (stereo not shown)
(A) 6.0

(Q) Let us now turn to C=CCN1C(=O)C(CC(=O)OC(C)C)SC1=Nc1cc(-n2c(=O)cc(C(F)(F)F)n(C)c2=O)c(F)cc1Cl (stereo not shown)
(A) 9.0

###

Test system: CHEAL (Lambsquarters, Common)
Assay: Preemergence herbicidal evaluation
Assay type: in vivo, Chenopodium album
Conditions: rate 0.0156 kg/ha; rated 4-5 weeks after treatment
readoutLabel: Preemergence herbicidal rating CHEAL
Number only, no unit.

>  <compound>
C=CCN1C(=O)C(CC(=O)OC(C)C)SC1=Nc1cc(-n2c(=O)cc(C(F)(F)F)n(C)c2=O)c(F)cc1Cl (stereo not drawn)

>  <Preemergence herbicidal rating CHEAL>
4.0

$$$$
>  <compound>
CCOC(=O)[C@H](C)N1C(=O)CSC1=Nc1cc(-n2c(=O)cc(C(F)(F)F)n(C)c2=O)c(F)cc1Cl

>  <Preemergence herbicidal rating CHEAL>
9.0

$$$$

Now consider the entry below.
(Q) Kindly state the measured Preemergence herbicidal rating CHEAL obtained for Cn1c(C(F)(F)F)cc(=O)n(-c2cc(N=C3SCC(=O)N3[C@H](Cc3ccccc3)C(=O)O)c(Cl)cc2F)c1=O with CHEAL (Lambsquarters, Common).
(A) 9.0

###

Recorded herbicidal effect rating, MOOVA values for a group of compounds are listed next.
Test system: MOOVA (Monochoria)
Assay: Preemergence weed control under flooded paddy conditions
Format: in vivo, Monochoria vaginalis
Conditions: 0.0625 kg/ha, rated 3-4 weeks after treatment
Just the number.

>  <compound>
CCOC(=O)CN1C(=O)C(SC)SC1=Nc1cc(-n2c(=O)cc(C(F)(F)F)n(C)c2=O)c(F)cc1Cl (stereo not shown) [Compound 125]

>  <herbicidal effect rating, MOOVA>
7.0

$$$$
>  <compound>
COc1cccc(CN2C(=O)CSC2=Nc2cc(-n3c(=O)cc(C(F)(F)F)n(C)c3=O)c(F)cc2Cl)c1 [Compound 137]

>  <herbicidal effect rating, MOOVA>
5.0

$$$$

(Q) Which herbicidal effect rating, MOOVA reading was recorded for the compound Cn1c(C(F)(F)F)cc(=O)n(-c2cc(N=C3SCC(=O)N3Cc3ccccc3Cl)c(Cl)cc2F)c1=O [Compound 143] ?
(A) 6.0

(Q) And the next one, CCOC(=O)CN1C(=O)C(CC(=O)NS(=O)(=O)C(C)C)SC1=Nc1cc(-n2c(=O)cc(C(F)(F)F)n(C)c2=O)c(F)cc1Cl (stereo not shown) [Compound 117] ?
(A) 7.0

(Q) Same question for COC(=O)CSCCN1C(=O)CSC1=Nc1cc(-n2c(=O)cc(C(F)(F)F)n(C)c2=O)c(F)cc1Cl [Compound 158] please.
(A) 9.0

(Q) # iterate: Cn1c(C(F)(F)F)cc(=O)n(-c2cc(N=C3SCC(=O)N3Cc3ccc(Cl)cc3)c(Cl)cc2F)c1=O [Compound 145]
(A) 6.0

(Q) Now this one: Cn1c(C(F)(F)F)cc(=O)n(-c2cc(N=C3SCC(=O)N3Cc3cccc(C(F)(F)F)c3)c(Cl)cc2F)c1=O [Compound 142]
(A) 7.0

(Q) Consider next the compound Cn1c(C(F)(F)F)cc(=O)n(-c2cc(N=C3SCC(=O)N3CC(=O)OCC3CC3)c(Cl)cc2F)c1=O [Compound 124] in the same way.
(A) 0.0

(Q) Now consider COCCN1C(=O)CSC1=Nc1cc(-n2c(=O)cc(C(F)(F)F)n(C)c2=O)c(F)cc1Cl [Compound 155] and answer again.
(A) 0.0

(Q) Query Cn1c(C(F)(F)F)cc(=O)n(-c2cc(N=C3SCC(=O)N3Cc3ccc(Br)cc3)c(Cl)cc2F)c1=O [Compound 148] next
(A) 7.0
